# Test system: 0.2% Cholesterol-Fed New Zealand White Rabbits
# protocol-text: Liver weight / body weight ratio in 0.2% cholesterol-fed rabbits, concurrent 0.4% drug (Example 20)
# Assay type: in vivo, New Zealand White rabbit
# experimental-context: 7 days; 0.2% cholesterol/0.4% drug diet
# Experimental: NZW rabbits (female, aged 3-4 months, weighing less than 3 Kg), six in each group, were fed a control diet of 0.2% cholesterol (100 g rabbit chow daily containing 0.2 g cholesterol) or a diet of 0.2% cholesterol/0.4% drug (100 g rabbit chow daily containing 0.2 g cholesterol and 0.4 g of drag). […] Plasma or serum was collected and cholesterol levels were determined using the enzymatic method of Mao, et at., Clin. Chem. (1983) 29:1890-1897. Liver weight and body weights were determined. […]

[
  {
    "compound": "COc1ccc([Si](C)(C)COc2cc(C(C)(C)C)c(O)c(C(C)(C)C)c2)cc1 [Compound H]",
    "measurement-unit": "%",
    "liver wt/body wt ratio": 110
  },
  {
    "compound": "COc1ccccc1[Si](C)(C)COc1cc(C(C)(C)C)c(O)c(C(C)(C)C)c1 [Compound K]",
    "measurement-unit": "%",
    "liver wt/body wt ratio": 90
  },
  {
    "compound": "CC(C)(C)c1cc(OC[Si](C)(C)c2ccccc2)cc(C(C)(C)C)c1O [Compound G]",
    "measurement-unit": "%",
    "liver wt/body wt ratio": 104
  },
  {
    "compound": "CC(C)(C)c1cc(OC[Si](C)(C)c2ccc(Cl)cc2)cc(C(C)(C)C)c1O [E]",
    "measurement-unit": "%",
    "liver wt/body wt ratio": 93
  }
]
